Target: Androgen Receptor (Homo sapiens, UniProt P10275)
Construct: endogenous in cells; host or cells: VCaP cells
Sequence (P10275 1-920): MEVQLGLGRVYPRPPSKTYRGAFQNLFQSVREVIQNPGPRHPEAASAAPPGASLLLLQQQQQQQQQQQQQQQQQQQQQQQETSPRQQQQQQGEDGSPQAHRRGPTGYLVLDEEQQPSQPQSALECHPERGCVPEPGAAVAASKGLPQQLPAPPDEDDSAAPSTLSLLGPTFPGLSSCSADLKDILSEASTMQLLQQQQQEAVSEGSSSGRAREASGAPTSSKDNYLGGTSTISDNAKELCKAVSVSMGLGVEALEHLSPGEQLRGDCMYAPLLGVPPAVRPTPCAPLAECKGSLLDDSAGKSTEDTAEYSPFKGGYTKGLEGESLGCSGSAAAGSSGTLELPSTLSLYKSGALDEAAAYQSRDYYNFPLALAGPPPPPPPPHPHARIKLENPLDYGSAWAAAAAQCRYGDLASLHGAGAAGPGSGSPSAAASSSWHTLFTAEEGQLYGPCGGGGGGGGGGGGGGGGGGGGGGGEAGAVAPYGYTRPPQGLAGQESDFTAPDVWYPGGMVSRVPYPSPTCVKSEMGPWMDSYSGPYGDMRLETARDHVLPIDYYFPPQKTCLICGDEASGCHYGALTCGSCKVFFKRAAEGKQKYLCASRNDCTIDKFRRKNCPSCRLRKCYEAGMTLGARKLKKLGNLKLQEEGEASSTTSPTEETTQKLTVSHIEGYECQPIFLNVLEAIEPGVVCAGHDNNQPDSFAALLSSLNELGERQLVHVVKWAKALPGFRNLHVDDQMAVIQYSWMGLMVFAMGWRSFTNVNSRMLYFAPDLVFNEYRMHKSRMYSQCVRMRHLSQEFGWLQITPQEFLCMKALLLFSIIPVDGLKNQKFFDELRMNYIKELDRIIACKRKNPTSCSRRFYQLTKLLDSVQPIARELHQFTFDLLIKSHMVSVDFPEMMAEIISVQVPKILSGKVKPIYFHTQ
Experiment: Androgen Receptor ELISA assay (PathScan AR ELISA) in VCaP cells: AR degradation, Dmax and DC50
Format: cell-based
Details: VCaP, VCaP cells; Table 36; read-out: VCaP Dmax (%)
// values below are reported Dmax

1) Cc1ncsc1-c1ccc([C@H](C)NC(=O)[C@@H]2C[C@@H](O)CN2C(=O)[C@@H](NC(=O)COC2CN(CCNc3ccc(C(=O)N[C@H]4C(C)(C)[C@H](Oc5ccc(C#N)c(Cl)c5)C4(C)C)cn3)C2)C(C)(C)C)cc1 ... 26 to 50%

Now look at this one.
Give the measured Dmax of Cc1ncsc1-c1ccc([C@H](C)NC(=O)C2C[C@@H](O)CN2C(=O)[C@@H](NC(=O)COCCN2CCCN(c3ccc(C(=O)N[C@H]4C(C)(C)[C@H](Oc5ccc(C#N)c(Cl)c5)C4(C)C)cn3)CC2)C(C)(C)C)cc1 (some centres unmarked) .
> 71%

* * *

// values below are reported Dmax
Target: Androgen Receptor (Homo sapiens, UniProt P10275)
Construct: endogenous in cells; host or cells: VCaP cells
Experiment: Androgen Receptor ELISA assay (PathScan AR ELISA) in VCaP cells: AR degradation, Dmax and DC50
Format: cell-based
Settings: VCaP, read-out: VCaP Dmax (%)

Recorded Dmax for Cc1ncsc1-c1ccc([C@H](C)NC(=O)[C@@H]2C[C@@H](O)CN2C(=O)[C@@H](NC(=O)CN2CC3CCC(C2)N3CCCc2ccc(C(=O)NC3C(C)(C)C(Oc4ccc(C#N)c(Cl)c4)C3(C)C)cc2)C(C)(C)C)cc1 (some centres unmarked) with Androgen Receptor (Homo sapiens, UniProt P10275), please?
26 to 50%

Recorded Dmax for `Cc1ncsc1-c1ccc([C@H](CO)NC(=O)[C@@H]2C[C@@H](O)CN2C(=O)[C@@H](NC(=O)CN2C3CCC2CN(CCCCc2ccc(C(=O)N[C@H]4C(C)(C)[C@H](Oc5ccc(C#N)c(Cl)c5)C4(C)C)cc2)C3)C(C)(C)C)cc1` with Androgen Receptor (Homo sapiens, UniProt P10275), please?
> 71%

Recorded Dmax for Cc1ncsc1-c1ccc([C@H](C)NC(=O)[C@@H]2C[C@@H](O)CN2C(=O)[C@H](C(C)C)n2cc(Oc3ccc(OC4CCC(Oc5ccc(N6C(=S)N(c7ccc(C#N)c(C(F)(F)F)c7)C(=O)C6(C)C)cc5)CC4)nc3)cn2)cc1 (some centres unmarked) with Androgen Receptor (Homo sapiens, UniProt P10275), please?
26 to 50%

Recorded Dmax for CC(C)(C)[C@H](NC(=O)COCC1CC2(C1)CC(COc1ccc(N3C(=S)N(c4ccc(C#N)c(Cl)c4)C(=O)C3(C)C)cc1)C2)C(=O)N1C[C@H](O)C[C@H]1C(=O)NCc1ccc(-c2cnco2)cc1 (some centres unmarked) with Androgen Receptor (Homo sapiens, UniProt P10275), please?
> 71%

Recorded Dmax for `Cc1ncsc1-c1ccc(CNC(=O)[C@@H]2C[C@@H](O)CN2C(=O)[C@@H](NC(=O)COCCCCOc2ccc(-c3ccc(N4C(=S)N(c5ccc(C#N)c(Cl)c5)C(=O)C4(C)C)cc3)cc2)C(C)(C)C)cc1` with Androgen Receptor (Homo sapiens, UniProt P10275), please?
> 71%

Recorded Dmax for Cc1ncsc1-c1ccc([C@H](C)NC(=O)C2C[C@@H](O)CN2C(=O)C(NC(=O)COCC(F)(F)C(F)(F)C(F)(F)COc2ccc(C(=O)N[C@H]3C(C)(C)[C@H](Oc4ccc(C#N)c(Cl)c4)C3(C)C)cc2)C(C)(C)C)cc1 (some centres unmarked) with Androgen Receptor (Homo sapiens, UniProt P10275), please?
> 71%

Recorded Dmax for `Cc1ncsc1-c1ccc(CNC(=O)[C@@H]2C[C@@H](O)CN2C(=O)[C@@H](NC(=O)CCCOc2ccc(CCOc3ccc(N4C(=S)N(c5ccc(C#N)c(C(F)(F)F)c5)C(=O)C4(C)C)cc3)cc2)C(C)(C)C)cc1` with Androgen Receptor (Homo sapiens, UniProt P10275), please?
51 to 70%

Recorded Dmax for `Cc1ncsc1-c1ccc(CNC(=O)[C@@H]2C[C@@H](O)CN2C(=O)[C@@H](NC(=O)CCN2CCC(OCCOc3ccc(N4C(=S)N(c5ccc(C#N)c(C(F)(F)F)c5)C(=O)C4(C)C)cc3)CC2)C(C)(C)C)cc1` with Androgen Receptor (Homo sapiens, UniProt P10275), please?
26 to 50%

Recorded Dmax for Cc1ncsc1-c1ccc(CNC(=O)[C@@H]2C[C@@H](O)CN2C(=O)[C@@H](NC(=O)COCC2CC3(C2)CC(COc2ccc(N4C(=S)N(c5ccc(C#N)c(C(F)(F)F)c5)C(=O)C45CCC5)cc2)C3)C(C)(C)C)cc1 (some centres unmarked) with Androgen Receptor (Homo sapiens, UniProt P10275), please?
> 71%

Recorded Dmax for `Cc1ncsc1-c1ccc(CNC(=O)[C@@H]2C[C@@H](O)CN2C(=O)[C@@H](NC(=O)CCOCCOc2ccc(-c3ccc(N4C(=S)N(c5ccc(C#N)c(C(F)(F)F)c5)C(=O)C4(C)C)cc3)cc2)C(C)(C)C)cc1` with Androgen Receptor (Homo sapiens, UniProt P10275), please?
26 to 50%

Recorded Dmax for `Cn1nccc1-c1ccc(CNC(=O)[C@@H]2C[C@@H](O)CN2C(=O)[C@@H](NC(=O)COCCCOCCCCOc2ccc(N3C(=S)N(c4ccc(C#N)c(Cl)c4)C(=O)C3(C)C)cc2F)C(C)(C)C)cc1` with Androgen Receptor (Homo sapiens, UniProt P10275), please?
> 71%

Recorded Dmax for `CC(C)(C)[C@H](NC(=O)COCCCOCCCCOc1ccc(N2C(=S)N(c3ccc(C#N)c(C(F)(F)F)c3)C(=O)C2(C)C)cc1)C(=O)N1C[C@H](O)C[C@H]1C(=O)NCc1ccc(-c2cncs2)cc1` with Androgen Receptor (Homo sapiens, UniProt P10275), please?
51 to 70%

Recorded Dmax for `Cc1ncsc1-c1ccc(CNC(=O)[C@@H]2C[C@@H](O)CN2C(=O)[C@@H](NC(=O)COCCCOCCN2CCC(c3ccc(N4C(=S)N(c5ccc(C#N)c(C(F)(F)F)c5)C(=O)C4(C)C)cc3)CC2)C(C)(C)C)cc1` with Androgen Receptor (Homo sapiens, UniProt P10275), please?
26 to 50%

Recorded Dmax for `Cc1ncsc1-c1ccc(CNC(=O)[C@H]2C[C@@H](O)CN2C(=O)[C@@H](NC(=O)[C@H](C)Oc2ccc(OCCOc3ccc(N4C(=S)N(c5ccc(C#N)c(C(F)(F)F)c5)C(=O)C4(C)C)cc3)cc2)C(C)(C)C)cc1` with Androgen Receptor (Homo sapiens, UniProt P10275), please?
26 to 50%

Recorded Dmax for `Cc1ncsc1-c1ccc(CNC(=O)[C@@H]2C[C@@H](O)CN2C(=O)[C@@H](NC(=O)COCCCCOc2ccc(-c3ccc(N4C(=S)N(c5ccc(C#N)c(C(F)(F)F)c5)C(=O)C4(C)C)cc3)cc2O)C(C)(C)C)cc1` with Androgen Receptor (Homo sapiens, UniProt P10275), please?
51 to 70%

Recorded Dmax for `Cc1ncsc1-c1ccc([C@H](C)NC(=O)[C@@H]2C[C@@H](O)CN2C(=O)[C@@H](NC(=O)CN2CCN(CC3CCN(c4ccc(C(=O)N[C@H]5C(C)(C)[C@H](Oc6ccc(C#N)c(Cl)c6)C5(C)C)cn4)CC3)CC2)C(C)(C)C)cc1` with Androgen Receptor (Homo sapiens, UniProt P10275), please?
> 71%

Recorded Dmax for `Cc1ncsc1-c1ccc([C@H](C)NC(=O)[C@@H]2C[C@@H](O)CN2C(=O)[C@@H](NC(=O)COCCCCOc2ccc(-c3ccc(N4C(=S)N(c5ccc(C#N)c(C(F)(F)F)c5)C(=O)C4(C)C)cn3)cn2)C(C)(C)C)cc1` with Androgen Receptor (Homo sapiens, UniProt P10275), please?
> 71%
